Listing of recorded Kd by entry.
Target: SARS-CoV-2 spike S1 protein (SARS-CoV-2, UniProt P0DTC2 16-685)
Value expressed in nM; do not type the unit.

Known Kd results, listed for orientation:
AB-009646 (antibody, V domains shown) VH: QVQLVESGGGVVQPGRSLRLSCAASGFTFSSYAMHWVRQAPGKGLEWVAVISYDGSNKYYADSVKGRFTISRDNSKNTLYLQMNSLRAEDTAVYYCARACSSTSCYKGDAFDIWGQGTMVTVSS VL: SYELTQPPSVSVSPGQTARITCSGDALPKQYAYWYQQKPGQAPVLVIYKDSERPSGIPERFSGSSSGTTVTLTISGVQAEDEADYYCQSADSSGTYSWVFGGGTKLTVL	150
AB-009108 (antibody, V domains shown) VH: QVQLQESGPGLVKPSETLALTCTVSGDSIINNNFYWGWLRQPPGQGLEWIGSLFHTGSAYYNSSLKSRVRSSVDTARNQISLRLSSVTAADTAVYYCARVNIVSVPAPPGAIEGWFDPWGQGTRVTVSP VL: SYELTQPPSVSVSLGQTARISCSGDALPTKYVHWYQQKAGQAPVVVIFRDTERPSEIPERFSGSSSGTTVTLTISGVQAEDEADYYCQSVDGSGFYVFGSGTKVTVL	94.3

Now for a further binder.
Item AB-009280 (antibody, V domains shown) VH: QVQLVESGGGVVQPGRSLRLSCAASGFTFSSYGMHWVRQAPGKGLEWVAVISYDGSNKYYADSVKGRFTISRDNSKNTLYLQMNSLRAEDTAVYYCAKSRGGGYYYYYMDVWGKGTTVTVSS VL: DIQMTQSPSSLSASVGDRVTITCRASQGISNYLAWFQQKPGKAPKSLIYAASSLQSGVPSKFSGSGSGTDFTLTISSLQPEDFATYYCQQYNSYPPTFGQGTKLEIK has what recorded Kd?
20.5

Numbers sourced from patent US20240327505A1.
